The values you see were collected from patent EP2974737A1.

Subject of test: T1, purified interference factor(s) from Donor A (human)
T1 construct: also called interference in serum from Donor A
Test protocol: SPR, interference factor immobilized; % of Fig. 9 reference
The following binders are shown together with reported interference binding, % of Reference Sequence values.
Please give a number only; it is taken to be in %.

{"Binder": "SEQ ID NO: 84 (VHH) VHH: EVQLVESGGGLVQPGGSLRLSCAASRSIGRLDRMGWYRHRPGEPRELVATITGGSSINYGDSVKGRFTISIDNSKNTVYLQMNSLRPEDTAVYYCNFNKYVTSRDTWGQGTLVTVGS", "Unit label": "%", "Result number": 84}
{"Binder": "SEQ ID NO: 69 (VHH) VHH: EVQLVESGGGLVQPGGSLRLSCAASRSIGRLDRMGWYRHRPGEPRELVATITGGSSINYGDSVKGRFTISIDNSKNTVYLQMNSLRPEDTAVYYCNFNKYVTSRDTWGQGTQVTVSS", "Unit label": "%", "Result number": 80}
{"Binder": "SEQ ID NO: 76 (VHH) VHH: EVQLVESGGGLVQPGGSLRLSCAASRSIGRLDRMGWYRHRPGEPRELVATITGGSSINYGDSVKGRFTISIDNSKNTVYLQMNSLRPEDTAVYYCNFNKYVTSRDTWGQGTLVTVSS", "Unit label": "%", "Result number": 2}
{"Binder": "SEQ ID NO: 42 (VHH) EVQLVESGGGLVQPGGSLRLSCAASGRTFSYNPMGWFRQAPGKGRELVAAISRTGGSTYYPDSVEGRFTISRDNAKRMVYLQMNSLRAEDTAVYYCAAAGVRAEDGRVRTLPSEYTFWGQGTQVTVSSAAAEVQLVESGGGLVQPGGSLRLSCAASGRTFSYNPMGWFRQAPGKGRELVAAISRTGGSTYYPDSVEGRFTISRDNAKRMVYLQMNSLRAEDTAVYYCAAAGVRAEDGRVRTLPSEYTFWGQGTQVTVSSA", "Unit label": "%", "Result number": 1}
{"Binder": "SEQ ID NO: 89 (VHH) VHH: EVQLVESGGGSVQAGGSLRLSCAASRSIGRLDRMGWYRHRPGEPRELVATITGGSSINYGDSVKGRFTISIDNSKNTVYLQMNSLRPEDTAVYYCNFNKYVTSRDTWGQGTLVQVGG", "Unit label": "%", "Result number": 14}
{"Binder": "SEQ ID NO: 67 (VHH) VHH: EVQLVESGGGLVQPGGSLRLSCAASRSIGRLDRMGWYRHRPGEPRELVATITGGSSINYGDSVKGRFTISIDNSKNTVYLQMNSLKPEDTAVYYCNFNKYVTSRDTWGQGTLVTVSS", "Unit label": "%", "Result number": 102}
{"Binder": "SEQ ID NO: 85 (VHH) VHH: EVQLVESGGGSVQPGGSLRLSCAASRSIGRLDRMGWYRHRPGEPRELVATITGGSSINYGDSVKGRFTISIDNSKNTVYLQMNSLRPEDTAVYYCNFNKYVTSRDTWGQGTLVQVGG", "Unit label": "%", "Result number": 46}
{"Binder": "SEQ ID NO: 80 (VHH) VHH: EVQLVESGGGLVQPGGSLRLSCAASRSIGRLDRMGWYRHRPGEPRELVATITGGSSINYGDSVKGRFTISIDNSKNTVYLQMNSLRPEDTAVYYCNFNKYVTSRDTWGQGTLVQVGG", "Unit label": "%", "Result number": 65}

Fill blank: measured interference binding, % of Reference Sequence of the binder SEQ ID NO: 70 (VHH) VHH: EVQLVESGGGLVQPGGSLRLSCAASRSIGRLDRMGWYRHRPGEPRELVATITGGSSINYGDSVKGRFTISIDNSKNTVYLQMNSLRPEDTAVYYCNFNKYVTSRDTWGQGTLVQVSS is ____. 90

Fill blank: measured interference binding, % of Reference Sequence of the binder SEQ ID NO: 71 (VHH) VHH: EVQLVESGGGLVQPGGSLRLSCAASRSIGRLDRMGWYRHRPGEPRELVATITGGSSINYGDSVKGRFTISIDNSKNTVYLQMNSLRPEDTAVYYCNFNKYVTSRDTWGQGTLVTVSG is ____. 88
